Test: recombinant barcode read abundance after kanamycin selection (control-corrected) (log10(CPM+1)); higher = more efficient recombination; sequences stand for … in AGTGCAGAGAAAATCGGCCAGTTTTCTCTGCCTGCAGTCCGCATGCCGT…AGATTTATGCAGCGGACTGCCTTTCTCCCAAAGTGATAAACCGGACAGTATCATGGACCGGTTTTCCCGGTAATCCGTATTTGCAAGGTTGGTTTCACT; site = the 11-nt target;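 also: IS621 recombinase and bridge RNA in Escherichia coli cells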
Measurement label: recombinant barcode read abundance (log10)

Tell us which recombinant barcode read abundance (log10) value is on record for CGTCAACCTTGGGTTCTAACCTGTTGCGT (site CGTCAACCTAC)
0.205

Let me know recorded recombinant barcode read abundance (log10) for ACCGAGACTTGGGTTCTAACCTGTTGCGG (site AGTGAGACTCC) , thanks.
0.0628

For the sequence GACGGACCTTGGGTTCTAACCTGTTGCTA (site ATAACGGCTAG) , report recombinant barcode read abundance (log10).
0.0648

Identify recombinant barcode read abundance (log10) associated with the sequence TTGTATACTTGGGTTCTAACCTGTTGCCT (site GTGTCTACTAG)
0.129

Read off the recorded recombinant barcode read abundance (log10) for TACTTCTCTTGGGTTCTAACCTGTTGCCT (site TACTTCCCTAC)
0.211

Answer with the recorded recombinant barcode read abundance (log10) of CACTTGACTTGGGTTCTAACCTGTTGCCT (site CACTTGTCTAG) only.
0.0323

Give the reported value of recombinant barcode read abundance (log10) for this record: GAGTGGCCTTGGGTTCTAACCTGTTGCTT (site GAGTGGCCTAT)
0.541

Please look at this sequence and report its recombinant barcode read abundance (log10): ACGTGCTCTTGGGTTCTAACCTGTTGCCT (site ACGTGCTCTAG)
1.32

Hello, please tell me recorded recombinant barcode read abundance (log10) for this one: GGTTGAGCTTGGGTTCTAACCTGTTGCTG (site GGTTGAGCTCA)
0.642

Please indicate recombinant barcode read abundance (log10) recorded for GCCAACCCTTGGGTTCTAACCTGTTGCTA (site TCCAACCCTTG)
0.129

Find the measured recombinant barcode read abundance (log10) of TATGTAGCTTGGGTTCTAACCTGTTGCCT (site TATGTAGCTGG) and report it.
0.103

In one line, give reported recombinant barcode read abundance (log10) of the entry AGTTGCCCTTGGGTTCTAACCTGTTGCCT (site AATTGCCCTAG) .
0.738

Look up and state reported recombinant barcode read abundance (log10) for CTACTAACTTGGGTTCTAACCTGTTGCCT (site CTACTAACTAA)
0.0105

Give me measured recombinant barcode read abundance (log10), please, for this sequence: TCTCCGCCTTGGGTTCTAACCTGTTGCCT (site TCTCGGCCTAG)
0.0901

Find the measured recombinant barcode read abundance (log10) of GGAGTACCTTGGGTTCTAACCTGTTGCAT (site GGAGTACCTAT) and report it.
2.12

Supply recombinant barcode read abundance (log10) value. Item: CTAAAGCCTTGGGTTCTAACCTGTTGCCT (site CTAAAGCCTAG)
1.25

Input ACTGATTCTTGGGTTCTAACCTGTTGCCT (site ACTGATGCTAG) , output reported recombinant barcode read abundance (log10).
0.0541

Tell me its recombinant barcode read abundance (log10) given TTAGTTCCTTGGGTTCTAACCTGTTGCCT (site TTAGTGCCTAG) as the entry.
0

Query recombinant barcode read abundance (log10) for TGACAGTCTTGGGTTCTAACCTGTTGCAG (site CACTTAACTTG)
0.0862

Name the recorded recombinant barcode read abundance (log10) of the sequence listed here: TAAAACCCTTGGGTTCTAACCTGTTGCAT (site CCGCGGACTTA)
0.15

Item GTGAACTCTTGGGTTCTAACCTGTTGCCT (site GTTAACTCTAG) : provide recombinant barcode read abundance (log10)
0.542

Answer with reported recombinant barcode read abundance (log10) of GTCGTCCCTTGGGTTCTAACCTGTTGCCA (site GCCGTCCCTTA)
0.071

Tell me measured recombinant barcode read abundance (log10) for TCCCGAACTTGGGTTCTAACCTGTTGCCT (site TCCCGAACTAG) please.
0.598

Annotate the sequence TTATAAGCTTGGGTTCTAACCTGTTGCCA (site TTATAAGCTTG) with its measured recombinant barcode read abundance (log10).
0.269

State its recombinant barcode read abundance (log10): AAACTAGCTTGGGTTCTAACCTGTTGCGG (site CGTGCGCCTAG)
0.288

Note down recombinant barcode read abundance (log10) recorded for TGACCCTCTTGGGTTCTAACCTGTTGCCT (site TGACCCTCTAG)
2.39

Indicate its recorded recombinant barcode read abundance (log10); the sequence in question is CTAGAAGCTTGGGTTCTAACCTGTTGCGG (site CTGGAACCTCC)
0.401

Just for reference, the supplement of paper PMC11208160 is where these values come from.
